Attribution: patent US20250011319A1

biological target: FLT3 (ITD) (Homo sapiens, UniProt P36888, ITD); test: FLT3 kinase radiometric HotSpot assay, FLT3 (ITD); type: biochemical; conditions: read-out: Ki, nM FLT3 (ITD)
Sequence (P36888 whole entry, looked up, change not shown): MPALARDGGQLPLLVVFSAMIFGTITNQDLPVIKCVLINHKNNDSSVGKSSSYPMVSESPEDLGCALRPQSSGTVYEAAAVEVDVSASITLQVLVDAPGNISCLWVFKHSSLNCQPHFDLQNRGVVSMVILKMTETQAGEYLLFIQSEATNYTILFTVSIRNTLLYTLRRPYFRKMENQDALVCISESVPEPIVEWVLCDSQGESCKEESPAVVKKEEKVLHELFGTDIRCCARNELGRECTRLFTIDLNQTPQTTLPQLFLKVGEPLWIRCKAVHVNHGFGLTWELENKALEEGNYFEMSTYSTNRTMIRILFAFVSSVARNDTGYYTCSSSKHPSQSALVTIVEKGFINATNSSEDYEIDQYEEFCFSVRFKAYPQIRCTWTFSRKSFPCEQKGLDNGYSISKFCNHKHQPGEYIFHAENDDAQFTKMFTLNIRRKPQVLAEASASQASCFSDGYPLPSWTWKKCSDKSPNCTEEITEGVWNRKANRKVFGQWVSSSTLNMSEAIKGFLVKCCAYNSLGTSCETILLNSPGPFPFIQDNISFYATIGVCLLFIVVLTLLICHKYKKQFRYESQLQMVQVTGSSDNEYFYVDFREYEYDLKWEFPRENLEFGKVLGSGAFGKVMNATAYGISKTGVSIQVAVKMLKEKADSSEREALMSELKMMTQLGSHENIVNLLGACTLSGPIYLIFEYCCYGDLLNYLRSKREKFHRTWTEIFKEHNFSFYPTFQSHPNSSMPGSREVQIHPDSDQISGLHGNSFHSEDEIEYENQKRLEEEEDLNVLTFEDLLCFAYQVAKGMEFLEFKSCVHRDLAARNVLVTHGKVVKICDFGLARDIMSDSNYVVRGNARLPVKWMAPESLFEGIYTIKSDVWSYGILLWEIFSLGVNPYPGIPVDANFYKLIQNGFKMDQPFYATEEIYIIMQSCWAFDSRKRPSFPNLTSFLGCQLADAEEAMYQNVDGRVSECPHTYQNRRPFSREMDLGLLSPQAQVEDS
Each entry below carries its recorded Ki.

In: GET /values?readout=Ki&system=FLT3 (ITD) (Homo sapiens, UniProt P36888, ITD)&item= COc1ccc2ncc3c(-c4ccc(OC)c(OC)c4)nn(-c4ccc5c(c4)CNC5)c3c2c1 [Compound 1.36]
Out: 0.5 to 2 nM

In: // map COc1ccc2ncc3c(-c4ccc(OC)c(OC)c4)nn(-c4ccc5c(c4)CNCC5)c3c2c1 [Compound 1.34] to recorded Ki (system: FLT3 (ITD) (Homo sapiens, UniProt P36888, ITD))
Out: < 0.5 nM

In: Lab note: need Ki for COc1ccc2ncc3c(-c4ccc(OC)c(OC)c4)nn(-c4ccc5c(c4)CCNC5)c3c2c1 [Compound 1.35] on FLT3 (ITD) (Homo sapiens, UniProt P36888, ITD), anyone have it?
Out: 0.5 to 2 nM
